# TEST: soluble on expression in E. coli; label from the status in PepcDB or PDB records

ENTRY SEQUENCE	soluble on expression in E. coli
MAAWFECKVTYEKVADNGMPKKVVESYLVDADSFTLAEAKMIEEITPFVSMGEFNISNIRKVNYAELFLNEDDKCDRYYRCKVLYVTIDEKNGVEKKTPAFMLVKSDSLPNAVAELEKQMGKGLADYEIASVAETALMDVFQYVPAQ	not soluble
MTYDALHVFDWIKARSGDNPVYIWGHSLGTGVATNLVRRLCERETPPDALILESPFTNIREEAKSHPFSVIYRYFPGFDWFFLDPITSSGIKFANDENMKHISCPLLILHAEDDPVVPFHLGRKLYNIAAPSRSFRDFKVQFIPFHSDLGYRHKYIYKSPELPRILREFLGKSEPERQH	not soluble
FCKELPRPELPYSEMSAIGSLIQALPASCALHLANSSAVRYAQLYSLPDTVEVCCNRGTSGIEGSLSTAIGYAAASKKLNFVVIGDLSFFYDMNALWNNHFGSNLRILLLNNGGGEIFHTLPGLEMSGTSHRFVTAVHKTSAKGWAEERGFLYQEVQDEKQLDEAMKTFTQPELLTQPVIMEVFTNKNKDARILKDYYHQLKN	not soluble
MMKQGMANSISMTWQLLCDEHGFTREHYNQLKKFSPETLREIIAEIASCHPSTSVLLRNKWLTPPEDILEQITREYERRIQNCPPFRSEKEAESWLNELSFAVIAPLYRVAPEQTEQVESFVLQLIAEQERVWELILTNDGYSWHCALYDILFHLVLRNMEDQPEHQKQRITKIFYEPDARLVAEEIKFRIQSLYDDEQKRALSELVNDFTSKE	soluble
MECFRSRIITIYLKRLKYSPLLWRNAKRGTRSSYMWLYVSICCGDFQFWKLSGTPSSPTCKTHSCGFIFWTNTHLLGDQLRYTIMDTIGMYLIIKQRLRNIHKNDPRLFQYVFENGHPLPYNR	not soluble
MALMNILPFARFLLDQAVNEGDIAVDATVGNGHDTVYLAERVGDFGHVFGFDIQPEAITAASARLAEHGLCGRATLFERSHSELLEALPADVHGRIAGAVFNLGYLPGGNKQIVTQPESTIEAVRQLLSVMKPGGVIVLVVYHGHPEGKRERDALLDYVRSLDQRRVHALKYEFINRQNNPPFLIALENRADGGA	not soluble
MGSDKIHHHHHHMPMRKEQQSRPDLRVLKSLMVCATIAASLILHSPSLMAAEEATGATSTAPSACSINPSEKLKNLFTEVKQYLGIRYRFGGDTPSGFDCSGFVRFMFNKEFNVNLPRSSREMATIGTRIDRNELRPGDLVFFKNAEDRINHVGIFVGNDTFVHSSLSKGITRDTLNESYYSKRFATGVRILDIQGNRIPDDFNNLFDESNNGNSPS	not soluble
MGSDKIHHHHHHMECSGLYPRRNRSSHNQSEFQVSFMATELSALPANHPRVTFGKVGVLLVNLGTPDGTDYWPMRRYLAEFLSDKRVIEWSRLYWYPILYGIVLNKRPQKVGKAYEEIWNHERNESYLRTYTRSQGELMAAALKDFPNVVVDWAMRYGQPSIASRIDALKEQGCEKILLFPLYPQYAASTTATVNDKAFEHLMKLRWQPAIRTVPPYHDDPAYIEGLAASVKNHLATLDWEPEMLITSFHGIPQSYFKKGDPYYCHCQKTARLLREALGRTEKNFMITFQSRFGPEEWLQPYTDKTVEKLASEGIKRIAVMNPGFVSDCLETLEEIAGEAGEIFLHNGGEKFTHIPCLNDSTEGMNVLEKVVRRELQGWV	not soluble
MRNIIFTGKGGVGKTSVAAATALKAADMGYKTLIMSTDPAHSLGDSLDIELGPSPVKVAENLWGQEVSVFGDLNLNWDVVREHFAHLMASRGIEGVYAEEMGVLPGMEELFSLSYIKRYNEEQKDFDLLVVDCAPTGETLRLLSLPETFGWFIKMIRNIEKYMVKPVIRPLSKKVKKLDDFVAPEEVYEKVDNLFSSTEGIIDLLADGTKTTMRLVMNPEKMVIKESMRALTYLNLYGITVDRITINRVMPDQSPDPYFQQWRNIQQKYIDQINSAFAPIPVAEVPLFNNEVVGLEMLRKVGEKVYGDENPLDIF	not soluble
MKNDRTLQAIGRQLKAMGCERFDIGVRDATTGQMMNREWSAAEVLQNTPWLKRMNAQGNDVYIRPAEQERHGLVLVDDLSEFDLDDMKAEGREPALVVETSPKNYQAWVKVADAAGGELRGQIARTLASEYDADPASADSRHYGRLAGFTNRKDKHTTRAGYQPWVLLRESKGKTATAGPALVQQAGQQIEQAQRQQEKARRLASLELPERQLSRHRRTALDEYRSEMAGLVKRFGDDLSKCDFIAAQKLASRGRSAEEIGKAMAEASPALAERKPGHEADYIERTVSKVMGLPSVQLARAELARAPAPRQRGMDRGGPDFSM	soluble
MGSDKIHHHHHHMTQTPKPPLTIYLAAPRGFCAGVDRAIKIVEMALEKWGAPVFVRHEIVHNKYVVDDLKAKGAVFVEELSDCPDDRPVIFSAHGVPKSVPQAAAARQMVYVDATCPLVSKVHIEAQRHSDNGLQMVMIGHKGHPETIGTMGQLPDGEVLLVETVEDVATVEVRDPSRLAFVTQTTLSVDDTIEIVEALTTRFPAIVGPHKEDICYATTNRQEAVKAMAPKAEAMLVVGAPNSSNSKRLVEVGSRAGCAYSQLVQRAADIDWRALGDIKTLGITAGASAPEVLIEEVIQAFEDRFDVTRELVETAVENVEFKVPRVLRETA	not soluble
MGSSHHHHHHSSGLVPRGSHMAAPIRFFELNTGAKLPCVGLGTYAMVATAIEQAIKIGYRHIDCASIYGNEKEIGGVLKKLIGDGFVKREELFITSKLWSNDHLPEDVPKALEKTLQDLQIDYVDLYLIHWPASLKKESLMPTPEMLTKPDITSTWKAMEALYDSGKARAIGVSNFSSKKLTDLLNVARVTPAVNQVECHPVWQQQGLHELCKSKGVHLSGYSPLGSQSKGEVRLKVLQNPIVTEVAEKLGKTTAQVALRWGLQTGHSVLPKSSSGARLKENLDVFDWSIPEDLFTKFSNIPQEKFCRATEFAHETHGFYKTIEELWDGEI	soluble

Reference source for all entries: the DeepSol protein solubility set
